Tested on: Vero E6
Assay: cell viability relative to DMSO; higher = less toxic
Settings: 72 h; 10 nM
For each entry below, report its cell viability value.
Express it in %; write the number only.

The reported cell viability of the molecule C[C@]12CC[C@H]3[C@@H](CC[C@]4(O)C[C@@H](O)CC[C@]34C=O)[C@@]1(O)CC[C@@H]2C1=CC(=O)OC1 was 98.8

The reported cell viability of the molecule CCc1ccc(CCOc2ccc(CC3SC(=O)NC3=O)cc2)nc1 (stereo not drawn) was 101

The reported cell viability of the molecule N[C@@H](CS(=O)O)C(=O)O was 95.8

The reported cell viability of the molecule CCN(CC)C(=O)c1ccc(C2=CC3(CCNCC3)Oc3cccc(O)c32)cc1 was 104

The reported cell viability of the molecule COc1cc2c(c(OC)c1OC)-c1c(cc3c(c1OC)OCO3)C[C@H](C)[C@@](C)(O)C2 was 102

The reported cell viability of the molecule N=C(N)SCCc1ccc(OCc2ccc([N+](=O)[O-])cc2)cc1 was 101

The reported cell viability of the molecule CCCCCN(CCCOC)C(=O)[C@@H](CCC(=O)O)NC(=O)c1ccc(Cl)c(Cl)c1 [dexloxiglumide] was 97.8

The reported cell viability of the molecule O=C(O)CC(S)C(=O)O (stereo not drawn) was 99.8
